- Test system: KM12 colon
- METHOD_SUMMARY: NCI tumour cell line growth inhibition, 48 h
READOUT_KIND: GI50

{"columns": ["COMPOUND", "GI50"],
 "data": [
  ["COc1cc(Cl)cc(-c2nn(-c3cccc(NC(=O)Nc4cc(C(F)(F)F)cc(C(F)(F)F)c4)c3)cc2-c2ccncc2)c1", "0.447 µM"],
  ["O=C(c1ccccc1)C(Br)C(Br)c1cccc([N+](=O)[O-])c1 (centres undefined)", "1.61 µM"],
  ["C=C1C(=O)O[C@H]2[C@H]1CCC(/C=N/c1ncc(Br)cc1N)=C\\CC[C@@]1(C)O[C@@H]21", "5.07 µM"]
]}

# input for lookup
Query GI50 for COc1ccccc1N1CCN(CCc2c[nH]c3cc4c(cc23)OCO4)CC1 27.3 µM
